Overview of reported fold change of Putrescine concentration across a group of compounds:
System: Klebsiella aerogenes DSM 30053
measurementProtocol: fold change of Putrescine concentration vs plate DMSO controls (fold change (ratio)); higher = more amine produced, active = hit call of the paper (significant change in both replicates, either direction)
recordedConditions: incubation time: 27 h, anaerobic, 37 °C
Where a name gives a salt, the structure may show the parent alone.
I only need the number, thanks.

Q) Fill in the blank: the reported fold change of Putrescine concentration of CCN(CC)CCNC(=O)c1cc(Cl)c(N)cc1OC [Metoclopramide monohydrochloride] (20 µM) is ____.
A) 1.03

Others:
Q) Can you share its fold change of Putrescine concentration? I mean this compound: Nc1ccc(S(=O)(=O)NC(=O)c2ccccc2)cc1 [Sulfabenzamide] (20 µM)
A) 0.991

====

Catalogue of growth values
Test system: Clostridium sporogenes DSM 1664
measurementProtocol: growth (OD595) fold change vs plate DMSO controls (fold change (ratio)); higher = more growth
recordedConditions: incubation time: 27 h, anaerobic, 37 °C
Where a name gives a salt, the structure may show the parent alone.
// keep it numeric: no unit symbol after the value

Q) Consider the compound shown here: Cc1nccn1CC1CCc2c(c3ccccc3n2C)C1=O (centres undefined) [Ondansetron hydrochloride] (20 µM) What is its recorded growth?
A) 0.937

Q) Here is the next compound: CC1(C)NC(=O)N(c2ccc([N+](=O)[O-])c(C(F)(F)F)c2)C1=O [Nilutamide] (20 µM)
A) 0.998

Q) Check COc1cc(C(=O)N2CCOCC2)cc(OC)c1OC [Trimetozine] (20 µM) too.
A) 0.932

Others:
Q) For the compound Cn1cc(C(=O)Nc2ccc(F)cc2-c2ccc(Cl)c(Cl)c2)c(C(F)F)n1 (20 µM) , what growth is on record?
A) 1.12

====

Test system: Clostridium sporogenes DSM 1664
measurementProtocol: fold change of Tryptamine concentration vs plate DMSO controls (fold change (ratio)); higher = more amine produced, active = hit call of the paper (significant change in both replicates, either direction);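 for the amine columns active = adjusted P below 0.05 in both replicates with a change the same way and a mean fold change under 0.8 or over 1.25; inactive = the rest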
recordedConditions: incubation time: 27 h, anaerobic, 37 °C
Counter-ions that a name gives are not always drawn.
Return exactly one item of active, inactive

Here are 6 compounds together with their reported answers.
Q) State the result this test recorded for Clc1ccc2nsnc2c1NC1=NCCN1 [Tizanidine hydrochloride] (20 µM) .
A) active

Q) Also CN(C)CCOC(c1ccc(Cl)cc1)c1ccccn1 (stereo unspecified) [Carbinoxamine maleate salt] (20 µM) ?
A) inactive

Q) Record: CC(C)NCC(O)c1ccc(NS(C)(=O)=O)cc1 (stereo unspecified) [Sotalol hydrochloride] (20 µM)
A) inactive

Q) Next compound: CCOc1nc2cccc(C(=O)O)c2n1Cc1ccc(-c2ccccc2-c2nnn[nH]2)cc1 [Candesartan] (20 µM)
A) inactive

Q) Thanks! And Cc1cn([C@H]2C[C@H](N=[N+]=[N-])[C@@H](CO)O2)c(=O)[nH]c1=O [Zidovudine] (20 µM) ?
A) inactive

Q) Then CN1CCC[C@@H]1Cc1c[nH]c2ccc(CCS(=O)(=O)c3ccccc3)cc12 [Eletriptan] (20 µM) ?
A) inactive

---
Q) What did this assay record as the result for CC(C)=C/C(C)=N/Nc1nncc2ccccc12 [Budralazine] (20 µM) ?
A) inactive

Q) Try CNCCc1ccccn1 [Betahistine mesylate] (20 µM) next.
A) inactive

Q) Query C=C1[C@H](CO)[C@@H](O)C[C@@H]1n1cnc2c(=O)[nH]c(N)nc21 [Entecavir] (20 µM) next
A) inactive

Q) Further, for NC(=O)c1cccnc1 [Nicotinamide] (20 µM) ?
A) inactive

Q) CCc1ccc(CCOc2ccc(CC3SC(=O)NC3=O)cc2)nc1 (stereo unspecified) [Pioglitazone] (20 µM) , same question.
A) inactive
